assay: P. aeruginosa biofilm formation inhibitors, primary screen, strain PAO1, LB-PBS medium, absorbance 600 nm (AID 1176); note: test concentration not given here; conditions: P. aeruginosa PAO1 growth/biofilm, A600, 12 h; higher = more signal
Property measured: z-score
Enter a number only.

Q. Quick check: z-score of "C[C@@]1([C@@H](NC(=O)c2ccc(-c3ccccc3)cc2)c2ccc(Cl)cc2)C[C@H]1C1CCCCC1" ?
A. -0.195

Q. Quick check: z-score of "C=CCOC(=O)[C@H]1[C@@H]2C(=O)O[C@@H](c3ccccc3)[C@@H](c3ccccc3)N2[C@@H](c2ccc(OCCOC(=O)[C@@H]3C[C@@H]4C(=O)N[C@@H](CCCCNC(C)=O)C(=O)N4[C@@H]3c3ccc(O)cc3)cc2)[C@]12C(=O)Nc1ccccc12" ?
A. 1.83

Q. Quick check: z-score of "[N-]=[N+]=Nc1ccccc1[C@@H]1OC(c2ccc(OCCCO)cc2)=N[C@]1(Cc1ccccc1)C(=O)N1CCOCC1" ?
A. -0.0279

----------
experiment: small-molecule microarray binders of probe aNog, primary screen, biochemical, biotinylated probe, 635/667 nm fluorescence (AID 1115); settings: higher = more signal;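 note: probe is biotinylated aNog protein used at 0.15 µg/mL for 1 h at 4 C; z-score combines 667 nm fluorescence of each spot with its signal to noise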
Label not met if composite z-score falls below 1; label met in every other case.

Q. Is reported composite z-score greater than or equal to 1 here: "O=C1N(Cc2ccccc2)c2ccccc2[C@@H]2OC(c3ccc(OCCCO)cc3)=N[C@]12CCS(=O)(=O)c1ccccc1"
A. not met

Q. Is reported composite z-score greater than or equal to 1 here: "C=C[C@@H](COC(=O)OC(C)(C)C)N(Cc1ccc(OC)cc1)S(=O)(=O)c1ccc(Br)cc1"
A. not met

Q. Is reported composite z-score greater than or equal to 1 here: CC(C)C(CO)N1C(=O)[C@@H]2C3C(=O)OCCC/C=C\[C@H]3OC23C=CCN(CCN2CCOCC2)C(=O)[C@@H]13 (some centres not stated)
A. not met

Q. Is reported composite z-score greater than or equal to 1 here: "COCCOC(=O)N1C(=O)[C@@]2(c3cc(C#CCCO)ccc31)[C@H](C(=O)N1CCCCCCC1)[C@H]1C(=O)O[C@H](c3ccccc3)[C@H](c3ccccc3)N1[C@@H]2c1ccc(OCCO)cc1"
A. met

Q. Is reported composite z-score greater than or equal to 1 here: N#Cc1ccc(NN2C(C(O)C(c3ccccc3)c3ccccc3)C=CC3C(=O)N(c4ccccc4)C(=O)C32)cc1 (configuration not stated)
A. met

Q. Is reported composite z-score greater than or equal to 1 here: "C=CCNC(=O)[C@H]1[C@@H]2C(=O)O[C@@H](c3ccccc3)[C@@H](c3ccccc3)N2[C@@H](c2ccccc2OCCO)[C@]12C(=O)Nc1ccc(C#CCCO)cc12"
A. not met

----------
assay: small-molecule binders of probe aLefty1, primary screen, biochemical, small-molecule microarray, 635/667 nm fluorescence (AID 1153); conditions: higher = more signal;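 note: score merges spot fluorescence with signal-to-noise ratio from the scanned slide images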
Please go through the items and note down their composite z-score.
Enter a number only.

Q. Quick check: composite z-score of "CCCC[C@H]1OB(O)C[C@H]2C1=C(COC)Cn1c(=O)n(-c3ccccc3)c(=O)n12" ?
A. -0.101

Q. Quick check: composite z-score of "CNS(=O)(=O)c1ccc(C)cc1" ?
A. -0.371

Q. Quick check: composite z-score of "C=CC[C@@]1(C(=O)NCCN2CCOCC2)N=C(c2ccc(OCCCO)cc2)O[C@@H]1c1ccccc1N=[N+]=[N-]" ?
A. 0.144

Q. Quick check: composite z-score of "C=CCN1C(=O)[C@@]2(Cc3ccccc31)N=C(c1ccc(OCCCO)cc1)O[C@H]2c1ccccc1" ?
A. 0.481

Q. Quick check: composite z-score of "COC(=O)[C@@]1(Cc2ccc(F)cc2)[C@H]2c3cc(C(=O)N4CCCC4)n(Cc4ccc(S(C)(=O)=O)cc4)c3C[C@H]2CN1C(=O)c1ccccc1" ?
A. 1.24

Q. Quick check: composite z-score of "COC(=O)[C@@]1(Cc2ccc(OC)cc2)[C@H]2c3cc(C(=O)N(C)C)n(Cc4ccc(S(C)(=O)=O)cc4)c3C[C@H]2CN1C(=O)c1ccccc1" ?
A. 1.06

Q. Quick check: composite z-score of "[N-]=[N+]=Nc1ccccc1[C@@H]1OC(c2ccc(OCCCO)cc2)=N[C@]1(CCS(=O)(=O)c1ccccc1)C(N)=O" ?
A. 0.572

Q. Quick check: composite z-score of CN1C(=O)C2C=CC(C(O)c3ccco3)N(Nc3ccccc3)C2C1=O (stereo not given) ?
A. 0.335

Q. Quick check: composite z-score of "COCCOC(=O)N1C(=O)[C@@]2(c3ccccc31)[C@H](c1ccc(O)cc1)N1[C@H](c3ccccc3)[C@H](c3ccccc3)OC(=O)[C@H]1[C@@H]2C(=O)Nc1nc2ccccc2s1" ?
A. 0.541

Q. Quick check: composite z-score of CCCCC(CC)C(O)C1C=CC2C(=O)N(Cc3ccccc3)C(=O)C2N1n1cnnc1 (stereo not given) ?
A. 0.0903

Q. Quick check: composite z-score of "COCCOC(=O)N1C(=O)[C@@]2(c3cc(C#CCNC(N)=O)ccc31)[C@H](C(=O)Nc1nc3ccccc3s1)[C@H]1C(=O)O[C@H](c3ccccc3)[C@H](c3ccccc3)N1[C@@H]2c1ccc(OCCO)cc1" ?
A. 0.729

Q. Quick check: composite z-score of "COc1ccc(/C=C/C=O)cc1" ?
A. 0.11

Q. Quick check: composite z-score of CN1C(=O)C2C=CC(C(O)C3CC=CCC3)N(N(c3ccccc3)c3ccccc3)C2C1=O (stereo not given) ?
A. 0.329

Q. Quick check: composite z-score of "COc1ccc(CCNC(=O)[C@@]2(C)c3ccccc3C(=O)N(C(C)C)[C@H]2c2ccc(CO)cc2)cc1" ?
A. -0.28

Q. Quick check: composite z-score of "NC(=O)NCC#Cc1ccc2c(c1)[C@]1(C(=O)N2)[C@H](c2ccccc2OCCO)N2[C@H](c3ccccc3)[C@H](c3ccccc3)OC(=O)[C@H]2[C@@H]1C(=O)Nc1nc2ccccc2s1" ?
A. 0.0692

Source of measurements: PubChem BioAssay
